Reference source: patent US20070244048A1

assay-system: T1, human NMUR2 (human, UniProt Q9GZQ4 1-415)
T1 construct: whole, on cells; Stably expressed in cells (FLIPR); also called hNMUR2; human R2
T1 sequence (Q9GZQ4 whole entry): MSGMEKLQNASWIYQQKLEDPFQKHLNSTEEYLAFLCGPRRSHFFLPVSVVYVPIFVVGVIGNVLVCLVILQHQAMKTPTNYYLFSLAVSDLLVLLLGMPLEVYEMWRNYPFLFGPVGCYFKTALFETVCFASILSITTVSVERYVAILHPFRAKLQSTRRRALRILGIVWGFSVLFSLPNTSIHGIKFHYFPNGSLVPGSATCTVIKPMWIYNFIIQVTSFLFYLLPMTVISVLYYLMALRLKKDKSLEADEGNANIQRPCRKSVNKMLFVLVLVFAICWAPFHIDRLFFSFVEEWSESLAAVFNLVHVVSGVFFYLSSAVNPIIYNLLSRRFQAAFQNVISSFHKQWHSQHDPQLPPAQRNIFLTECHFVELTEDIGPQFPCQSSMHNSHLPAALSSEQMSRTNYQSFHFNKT
protocol: 125I-hNMU-25 displacement, HEK cell membranes
Non-standard residues stand in square brackets, D forms with d. No end group written: not given here. hArg = N=C(N)NCCCC[C@H](N)C(=O)O
assay-readout: pIC50
Numbers only, as −log10 of the molar value.

Answered examples (2):
binder: FWLFRP[hArg]N-NH2 (N-terminus assumed; SMILES CC(C)C[C@H](NC(=O)[C@H](Cc1c[nH]c2ccccc12)NC(=O)[C@@H](N)Cc1ccccc1)C(=O)N[C@@H](Cc1ccccc1)C(=O)N[C@@H](CCCNC(=N)N)C(=O)N1CCC[C@H]1C(=O)N[C@@H](CCCCNC(=N)N)C(=O)N[C@@H](CC(N)=O)C(N)=O) [neuromedin U receptor agonist I]
pIC50: 8.04
//
binder: FWLFRARN-NH2 [neuromedin U receptor agonist L]
pIC50: 7.43

Now look at this entry.
// pIC50 value for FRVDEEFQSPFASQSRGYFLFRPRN-NH2 (also called hNMU-25; native hNMU) [human NMU-25] : 9.72
